- System: band b1i0_69.4
- assay method text: multi-sample expression analysis, band intensity
- Format: in vivo
- test conditions: Pooled, High dose, 1d
Reported band intensity b1i0_69.4 by item:
Respond numerically, and do not add a unit to the figure.

See these solved cases before continuing.
O=NN(CCCl)C(=O)NCCCl: 194.3
S=C=Nc1cccc2ccccc12: 208.6
CC(=O)[C@@]1(O)CC[C@H]2[C@@H]3C=C(Cl)C4=CC(=O)[C@@H]5C[C@@H]5[C@]4(C)[C@H]3CC[C@@]21C: 254.9
Nc1ccc(Cc2ccc(N)cc2)cc1: 262.2

Field: next compound
Just so you know, measured band intensity b1i0_69.4 for "Cc1cc(C(C)(C)C)c(O)c(C(C)(C)C)c1" came out at 241.7

----------
- System: band b1i0_54.5
- assay method text: multi-sample expression analysis, band intensity
- Type: in vivo
- test conditions: Pooled, High dose, 3d
endpoint name: band intensity b1i0_54.5
Respond numerically, and do not add a unit to the figure.

See these solved cases before continuing.
O=NN(CCCl)C(=O)NCCCl: 112.1
Cc1cc(C(C)(C)C)c(O)c(C(C)(C)C)c1: 96.92
Nc1ccc(Cc2ccc(N)cc2)cc1: 106
CC(=O)[C@@]1(O)CC[C@H]2[C@@H]3C=C(Cl)C4=CC(=O)[C@@H]5C[C@@H]5[C@]4(C)[C@H]3CC[C@@]21C: 80.83

Field: next compound
Per the reported band b1i0_54.5 data, "S=C=Nc1cccc2ccccc12" has band intensity b1i0_54.5 of 114.2

----------
- System: band b1i0_60.7
- assay method text: multi-sample expression analysis, band intensity
- Type: in vivo
- test conditions: Pooled, High dose, 7d
Reported band intensity b1i0_60.7 by item:

See these solved cases before continuing.
Cc1cc(C(C)(C)C)c(O)c(C(C)(C)C)c1: 62.31
Nc1ccc(Cc2ccc(N)cc2)cc1: 82.44
CC(=O)[C@@]1(O)CC[C@H]2[C@@H]3C=C(Cl)C4=CC(=O)[C@@H]5C[C@@H]5[C@]4(C)[C@H]3CC[C@@]21C: 73.61

Just so you know, measured band intensity b1i0_60.7 for "S=C=Nc1cccc2ccccc12" came out at 72.63

----------
- Tested on: band b1i0_51.7
- assay method text: multi-sample expression analysis, band intensity
- Assay type: in vivo
- test conditions: Pooled, Low dose, 7d
- Source text: To practice the invention, one skilled in the art obtains a source of biological samples, as well as expression information about the biological samples, i.e., expression information relative to one or more genes or polypeptides encoded therein. Data is collected for a particular phenotype appearing within a given population under study, whereby expression of that phenotype is to be determined within the biological sample under study. […]
endpoint name: band intensity b1i0_51.7
Respond numerically, and do not add a unit to the figure.

See these solved cases before continuing.
S=C=Nc1cccc2ccccc12: 20.67
O=NN(CCCl)C(=O)NCCCl: 19.76
Nc1ccc(Cc2ccc(N)cc2)cc1: 21.37
Cc1cc(C(C)(C)C)c(O)c(C(C)(C)C)c1: 12.13

Field: next compound
Just so you know, measured band intensity b1i0_51.7 for "CC(=O)[C@@]1(O)CC[C@H]2[C@@H]3C=C(Cl)C4=CC(=O)[C@@H]5C[C@@H]5[C@]4(C)[C@H]3CC[C@@]21C" came out at 12.77

----------
- System: band b1i0_60.7
- assay method text: multi-sample expression analysis, band intensity
- Format: in vivo
- test conditions: Pooled, Low dose, 7d
- Excerpt: To practice the invention, one skilled in the art obtains a source of biological samples, as well as expression information about the biological samples, i.e., expression information relative to one or more genes or polypeptides encoded therein. Data is collected for a particular phenotype appearing within a given population under study, whereby expression of that phenotype is to be determined within the biological sample under study. […]
Reported band intensity b1i0_60.7 by item:
Respond numerically, and do not add a unit to the figure.

CC(=O)[C@@]1(O)CC[C@H]2[C@@H]3C=C(Cl)C4=CC(=O)[C@@H]5C[C@@H]5[C@]4(C)[C@H]3CC[C@@]21C [Cyproterone]: 80.22
O=NN(CCCl)C(=O)NCCCl [BCNU]: 96.79
Cc1cc(C(C)(C)C)c(O)c(C(C)(C)C)c1 [BHT]: 79.01
S=C=Nc1cccc2ccccc12 [ANIT]: 75.42

Field: next compound
Per the reported band b1i0_60.7 data, Nc1ccc(Cc2ccc(N)cc2)cc1 [Methylenedianiline] has band intensity b1i0_60.7 of 79.32

----------
- System: band b1i0_63.7
- assay method text: multi-sample expression analysis, band intensity
- Type: in vivo
- test conditions: Pooled, High dose, 7d
- Description: To practice the invention, one skilled in the art obtains a source of biological samples, as well as expression information about the biological samples, i.e., expression information relative to one or more genes or polypeptides encoded therein. Data is collected for a particular phenotype appearing within a given population under study, whereby expression of that phenotype is to be determined within the biological sample under study. […]
Reported band intensity b1i0_63.7 by item:
Respond numerically, and do not add a unit to the figure.

See these solved cases before continuing.
Cc1cc(C(C)(C)C)c(O)c(C(C)(C)C)c1 [BHT]: 313.4
S=C=Nc1cccc2ccccc12 [ANIT]: 147.9

Per the reported band b1i0_63.7 data, CC(=O)[C@@]1(O)CC[C@H]2[C@@H]3C=C(Cl)C4=CC(=O)[C@@H]5C[C@@H]5[C@]4(C)[C@H]3CC[C@@]21C [Cyproterone] has band intensity b1i0_63.7 of 154.7

Per the reported band b1i0_63.7 data, Nc1ccc(Cc2ccc(N)cc2)cc1 [Methylenedianiline] has band intensity b1i0_63.7 of 144.3

----------
- Tested on: band b1i0_69.4
- assay method text: multi-sample expression analysis, band intensity
- Type: in vivo
- test conditions: Pooled, Low dose, 3d
Reported band intensity b1i0_69.4 by item:
Respond numerically, and do not add a unit to the figure.

See these solved cases before continuing.
CC(=O)[C@@]1(O)CC[C@H]2[C@@H]3C=C(Cl)C4=CC(=O)[C@@H]5C[C@@H]5[C@]4(C)[C@H]3CC[C@@]21C [Cyproterone]: 270.7
Cc1cc(C(C)(C)C)c(O)c(C(C)(C)C)c1 [BHT]: 190.6
Nc1ccc(Cc2ccc(N)cc2)cc1 [Methylenedianiline]: 349.3
O=NN(CCCl)C(=O)NCCCl [BCNU]: 292.1

Field: next molecule
Just so you know, measured band intensity b1i0_69.4 for S=C=Nc1cccc2ccccc12 [ANIT] came out at 370.5

----------
- System: band b1i0_63.7
- assay method text: multi-sample expression analysis, band intensity
- Assay type: in vivo
- test conditions: Pooled, Low dose, 3d
endpoint name: band intensity b1i0_63.7
Respond numerically, and do not add a unit to the figure.

O=NN(CCCl)C(=O)NCCCl [BCNU]: 104.2
CC(=O)[C@@]1(O)CC[C@H]2[C@@H]3C=C(Cl)C4=CC(=O)[C@@H]5C[C@@H]5[C@]4(C)[C@H]3CC[C@@]21C [Cyproterone]: 110.4

Just so you know, measured band intensity b1i0_63.7 for Nc1ccc(Cc2ccc(N)cc2)cc1 [Methylenedianiline] came out at 84.1

Just so you know, measured band intensity b1i0_63.7 for S=C=Nc1cccc2ccccc12 [ANIT] came out at 7.245

Just so you know, measured band intensity b1i0_63.7 for Cc1cc(C(C)(C)C)c(O)c(C(C)(C)C)c1 [BHT] came out at 171.4

----------
Reported band intensity b1i0_54.5 by item:
- System: band b1i0_54.5
- assay method text: multi-sample expression analysis, band intensity
- Format: in vivo
- test conditions: Pooled, High dose, 1d
Respond numerically, and do not add a unit to the figure.

See these solved cases before continuing.
Cc1cc(C(C)(C)C)c(O)c(C(C)(C)C)c1 [BHT]: 82.82
O=NN(CCCl)C(=O)NCCCl [BCNU]: 112.4
CC(=O)[C@@]1(O)CC[C@H]2[C@@H]3C=C(Cl)C4=CC(=O)[C@@H]5C[C@@H]5[C@]4(C)[C@H]3CC[C@@]21C [Cyproterone]: 98.48
Nc1ccc(Cc2ccc(N)cc2)cc1 [Methylenedianiline]: 104.9

Just so you know, measured band intensity b1i0_54.5 for S=C=Nc1cccc2ccccc12 [ANIT] came out at 102.2

----------
- Tested on: band b1i0_57.4
- assay method text: multi-sample expression analysis, band intensity
- Assay type: in vivo
- test conditions: Pooled, High dose, 3d
- Excerpt: To practice the invention, one skilled in the art obtains a source of biological samples, as well as expression information about the biological samples, i.e., expression information relative to one or more genes or polypeptides encoded therein. Data is collected for a particular phenotype appearing within a given population under study, whereby expression of that phenotype is to be determined within the biological sample under study. […]
Binary label based on band intensity b1i0_57.4 with cut-off 1000: below gives 1, not below gives 0.

Worked set:
Cc1cc(C(C)(C)C)c(O)c(C(C)(C)C)c1 [BHT]: 0
S=C=Nc1cccc2ccccc12 [ANIT]: 1
O=NN(CCCl)C(=O)NCCCl [BCNU]: 0

### Prompt # check: band intensity b1i0_57.4 < 1000 for Nc1ccc(Cc2ccc(N)cc2)cc1 [Methylenedianiline]
### Response 0
